Let's look at some variants and their measured abundance fitness.
B1: Gamma-crystallin S, residues 96 to 176; numbered along this chain, P22914 (parent)
chain: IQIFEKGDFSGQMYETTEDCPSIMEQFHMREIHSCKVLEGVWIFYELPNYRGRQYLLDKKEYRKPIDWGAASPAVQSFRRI

Variants of: B1
Assay: abundance fitness (aPCA) (normalised: wild type 0, dead -1); higher = more abundant; growth selection in yeast, the domain comes from the species named
Conditions: Homo sapiens
parameter_measured: abundance fitness

mutation_id	measurement
A71E	0.028
Q54L	-0.121
I43F	0.008
I1R	-1.07
F78A	-0.136
D67T	-0.262
E18T	-0.046
D19N	-0.193
Q54K	-0.07
Q12A	-0.02
E39M	-0.014
A74C	0.203
C20H	-0.398
H28L	0.035
E39W	-0.06
Y45Q	-0.888
F44E	-0.951
K64W	-0.24
G11Y	-0.094
S10M	-0.033
D19M	-0.097
E46C	-0.008
T17A	0.022
R30A	0.061
E15L	-0.078
P48H	-0.236
L57R	-0.288
P48I	-0.23
P21T	-0.012
N49H	-0.004
E18G	0.038
E18K	0.017
D58A	0.04
R30D	0.009
E39A	0.059
M24S	-0.088
D58V	0.023
I1H	0.005
T16Q	-0.108
G7Y	-0.025
R53E	0.036
F27C	-0.094
E31L	0.056
V37L	0.023
T17L	0.022
D58Y	-0.067
P48T	0.002
I23P	0.02
K60C	0.021
I43Q	0.056
Y55M	-0.231
G11N	-0.002
D67P	-0.154
K6H	-0.02
K60I	-0.18
Y55G	-0.529
K59V	0.119
D8K	0.162
Y14G	0.028
M13D	-0.032
L38Q	-0.072
I66S	0.061
K36G	-0.171
M24D	-0.11
K36W	0.15
S72M	-0.149
F44Q	-0.602
R80S	-0.023
M29F	0.036
S10L	0.005
P65Q	0.045
F9A	-0.064
A74S	-0.111
N49D	0.004
D19G	-0.035
G40H	-0.252
V75L	-0.046
E46G	-0.094
H28R	-0.047
M29W	0.027
G52R	-0.766
H33E	0.054
G11H	-0.021
F27K	-0.018
A70D	-0.017
Y50H	-0.102
H33S	0.03
Y55D	-0.531
Q2D	-0.053
Y62T	-0.174
A74G	0.046
